Values were extracted from patent US20260042764A1.

# targetSystem: Avi-KRAS G12D (1-169) GppNHp/RAF1 RBD-3xFLAG (52-151) (Homo sapiens, UniProt P01116, G12D)
# Construct: Avi-KRAS G12D (1-169)
# Sequence (P01116 1-169 isoform P01116-2 G12D): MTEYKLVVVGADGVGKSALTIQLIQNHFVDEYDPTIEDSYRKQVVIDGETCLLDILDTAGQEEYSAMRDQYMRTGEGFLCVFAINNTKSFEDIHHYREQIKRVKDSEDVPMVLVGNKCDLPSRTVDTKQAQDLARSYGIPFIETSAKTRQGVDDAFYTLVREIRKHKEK
# assayOverview: Raf1-KRAS G12D-GppNHP disruption HTRF assay (Biological Example 1)
# Assay type: binding
# recordedConditions: KRAS G12D-GppNHp/RAF1 RBD HTRF
pIC50: −log10 of the molar value.
measure: pIC50

Just so you know, measured pIC50 for `N#Cc1c(N)sc2c(F)ccc(-c3c(C(F)(F)F)cc4c(N5CCn6nc(C(=O)N7CC[C@H](O)C7)cc6C5)nc(OC[C@@]56CCCN5C[C@H](F)C6)nc4c3F)c12` came out at 6.00 to 7.00

Recorded pIC50 (molecule `C[C@H]1C[C@H](N(C)c2nc(OC[C@@]34CCCN3C[C@H](F)C4)nc3c(F)c(-c4ccc(F)c5sc(N)c(C#N)c45)c(C(F)(F)F)cc23)CN1C(=O)C1CC1` ): 6.00 to 7.00

For record `CCC(=O)N1CC[C@@H](N(CC)c2nc(OC[C@@]34CCCN3C[C@H](F)C4)nc3c(F)c(-c4ccc(F)c5sc(N)c(C#N)c45)c(C(F)(F)F)cc23)C1` the listed pIC50 is 6.00 to 7.00

The value of pIC50 measured for the molecule `C[C@H]1[C@H](O)CCCN1c1nc(OC[C@@]23CCCN2C[C@H](F)C3)nc2c(F)c(-c3ccc(F)c4sc(N)c(C#N)c34)c(C(F)(F)F)cc12` turned out to be 6.00 to 7.00

The measured pIC50 associated with CN(c1nc(OC[C@@]23CCCN2C[C@H](F)C3)nc2c(F)c(-c3ccc(F)c4sc(N)c(C#N)c34)c(C(F)(F)F)cc12)C1CCCS(=O)(=O)C1 (stereo partly shown) reads 6.00 to 7.00

Value of measured pIC50 for the entry CCN(c1nc(OC[C@@]23CCCN2C[C@H](F)C3)nc2c(F)c(-c3ccc(F)c4sc(N)c(C#N)c34)c(C(F)(F)F)cc12)[C@@H]1CCN(C(=O)C2CC2)[C@@H]1C (atropisomer, axis not shown) [Compound 524] : > 7.00

Summary for this molecule, `C[C@@H]1[C@H](N(C)c2nc(OC[C@@]34CCCN3C[C@H](F)C4)nc3c(F)c(-c4ccc(F)c5sc(N)c(C#N)c45)c(C(F)(F)F)cc23)CCN1C(=O)C(C)(C)C` : pIC50 is 6.00 to 7.00

Entry `CCN(c1nc(OC[C@@]23CCCN2C[C@H](F)C3)nc2c(F)c(-c3ccc(F)c4sc(N)c(C#N)c34)c(C(F)(F)F)cc12)[C@H]1C[C@H](C)N(C(=O)C(C)C)C1` — recorded pIC50 = 6.00 to 7.00

Please fill in: pIC50 reported for `N#Cc1c(N)sc2c(F)ccc(-c3c(C(F)(F)F)cc4c(N5CCn6nc(N7CCOCC7)cc6C5)nc(OC[C@@]56CCCN5C[C@H](F)C6)nc4c3F)c12` = 5.00 to 6.00

Field pIC50 (entry `CN(C)C(=O)[C@H]1CC[C@@H](N(C)c2nc(OC[C@@]34CCCN3C[C@H](F)C4)nc3c(F)c(-c4ccc(F)c5sc(N)c(C#N)c45)c(C(F)(F)F)cc23)C1` ) reads 6.00 to 7.00

* * *

Could you please report measured IC50 for the items listed next?
# targetSystem: Avi-KRAS G12C (2-169) GTP/RAF1 RBD-3xFLAG (51-131) (Homo sapiens, UniProt P01116, G12C)
# Construct: Avi-KRAS G12C (2-169)
# Sequence (P01116 2-169 isoform P01116-2 G12C): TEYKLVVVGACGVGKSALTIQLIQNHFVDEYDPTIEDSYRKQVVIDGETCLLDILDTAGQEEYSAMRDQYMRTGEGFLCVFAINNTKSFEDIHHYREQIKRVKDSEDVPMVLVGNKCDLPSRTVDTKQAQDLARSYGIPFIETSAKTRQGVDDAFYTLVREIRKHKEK
# assayOverview: Raf1-KRAS G12C-GTP disruption HTRF assay (Biological Example 3)
# Type: binding
# recordedConditions: KRAS G12C, GTP-loaded

Input CCN(c1nc(OC[C@@]23CCCN2C[C@H](F)C3)nc2c(F)c(-c3ccc(F)c4sc(N)c(C#N)c34)c(C(F)(F)F)cc12)[C@H]1CCN(C(=O)N(C)C)C1 (atropisomer, axis not shown) [Compound 540] . Output IC50: ≤ 100 nM

# IC50 of CCC(=O)N1CC[C@@H](N(CC)c2nc(OC[C@@]34CCCN3C[C@H](F)C4)nc3c(F)c(-c4ccc(F)c5sc(N)c(C#N)c45)c(C(F)(F)F)cc23)[C@H]1C (atropisomer, axis not shown) [Compound 523] = ≤ 100 nM

* * *

What IC50 was measured for each of the following?
# targetSystem: Avi-KRAS G12D (2-169) GTP/RAF1 RBD-3xFLAG (51-131) (Homo sapiens, UniProt P01116, G12D)
# Construct: Avi-KRAS G12D (2-169)
# Sequence (P01116 2-169 isoform P01116-2 G12D): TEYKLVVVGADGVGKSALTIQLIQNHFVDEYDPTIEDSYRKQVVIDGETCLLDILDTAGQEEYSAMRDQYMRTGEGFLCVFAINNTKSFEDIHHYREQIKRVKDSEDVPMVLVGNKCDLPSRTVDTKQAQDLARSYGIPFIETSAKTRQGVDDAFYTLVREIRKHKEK
# assayOverview: Raf1-KRAS G12D-GTP disruption HTRF assay (Biological Example 3)
# Type: binding
# recordedConditions: KRAS G12D, GTP-loaded

For N#Cc1c(N)sc2c(F)ccc(-c3c(C(F)(F)F)cc4c(N5CC6CC(C5)O6)nc(OC[C@@]56CCCN5C[C@H](F)C6)nc4c3F)c12 (single isomer, unassigned) [Compound 275] the compound record lists IC50 as 100 to 1000 nM

Value of measured IC50 for the entry Cc1c(C(=O)N(C)C)nn2c1CN(c1nc(OC[C@@]34CCCN3C[C@H](F)C4)nc3c(F)c(-c4ccc(F)c5sc(N)c(C#N)c45)c(C(F)(F)F)cc13)CC2 (atropisomer, axis not shown; (aS)) [Compound 590] : 100 to 1000 nM

Noted for CCN(c1nc(OC[C@@]23CCCN2C[C@H](F)C3)nc2c(F)c(-c3ccc(F)c4sc(N)c(C#N)c34)c(C(F)(F)F)cc12)[C@H]1CC[C@@](C)(C(=O)N(C)C)C1 (atropisomer, axis not shown) [Compound 873] : its IC50 reads 1000 to 10000 nM

# IC50 (compound: CCN(c1nc(OC[C@@]23CCCN2C[C@H](F)C3)nc2c(F)c(-c3ccc(F)c4sc(N)c(C#N)c34)c(C(F)(F)F)cc12)[C@H]1CC[C@H](C(=O)N(C)C)C1 (atropisomer, axis not shown) [Compound 660] ) is 100 to 1000 nM

Summary for this compound, CCN(c1nc(OC[C@@]23CCCN2C[C@H](F)C3)nc2c(F)c(-c3ccc(F)c4sc(N)c(C#N)c34)c(C(F)(F)F)cc12)[C@H]1CCN(C(=O)OC2CC(F)(F)C2)C1 (atropisomer, axis not shown) [Compound 830] : IC50 is 100 to 1000 nM

The reported value for CCN(c1nc(OC[C@@]23CCCN2C[C@H](F)C3)nc2c(F)c(-c3ccc(F)c4sc(N)c(C#N)c34)c(C(F)(F)F)cc12)[C@H]1CCN(C(=O)[C@@H]2CCO2)[C@@H]1C (atropisomer, axis not shown) [Compound 918] in terms of IC50 is ≤ 100 nM

Looking up CCN(c1nc(OC[C@@]23CCCN2C[C@H](F)C3)nc2c(F)c(-c3ccc(F)c4sc(N)c(C#N)c34)c(C(F)(F)F)cc12)[C@@H]1C[C@H](C)N(C(C)=O)C1 (atropisomer, axis not shown) [Compound 534] , I see its IC50 listed as 100 to 1000 nM

# compound CCN(c1nc(OC[C@@]23CCCN2C[C@H](F)C3)nc2c(F)c(-c3ccc(F)c4sc(N)c(C#N)c34)c(C(F)(F)F)cc12)[C@H]1CCN(C(=O)c2ncc(Cl)s2)C1 (atropisomer, axis not shown) [Compound 939] ; its IC50 = 100 to 1000 nM

Record CCN(c1nc(OC[C@@]23CCCN2C[C@H](F)C3)nc2c(F)c(-c3ccc(F)c4sc(N)c(C#N)c34)c(C(F)(F)F)cc12)[C@H]1CCN(C(=O)O[C@H]2CO[C@H]3OCC[C@H]32)C1 (atropisomer, axis not shown) [Compound 816] . Reported IC50: 100 to 1000 nM

* * *

Exercise: for every item that follows, state its recorded pIC50.
# targetSystem: Avi-KRAS G12C (2-169) GTP/RAF1 RBD-3xFLAG (51-131) (Homo sapiens, UniProt P01116, G12C)
# Construct: Avi-KRAS G12C (2-169)
# assayOverview: Raf1-KRAS G12C-GTP disruption HTRF assay (Biological Example 3)
# Format: binding
# recordedConditions: KRAS G12C, GTP-loaded
pIC50: −log10 of the molar value.

Sample CCN(c1nc(OC[C@@]23CCCN2C[C@H](F)C3)nc2c(F)c(-c3ccc(F)c4sc(N)c(C#N)c34)c(C(F)(F)F)cc12)[C@H]1CCN(C(=O)C2CC2(F)F)C1 (some centres unmarked) [Compound 581] ; pIC50 observed: ≥ 7.00

Per the records, this compound ( CCN(c1nc(OC[C@@]23CCCN2C[C@H](F)C3)nc2c(F)c(-c3ccc(F)c4sc(N)c(C#N)c34)c(C(F)(F)F)cc12)[C@H]1CCN(C(C)=O)[C@@H]1COC (atropisomer, axis not shown) [Compound 924] ) has pIC50 equal to 6.00 to 7.00

The compound listed as CCN(c1nc(OC[C@@]23CCCN2C[C@H](F)C3)nc2c(F)c(-c3ccc(F)c4sc(N)c(C#N)c34)c(C(F)(F)F)cc12)[C@H]1C[C@H](COC)N(C(=O)OC2COC2)C1 (atropisomer, axis not shown) [Compound 837] has a reported pIC50 of 6.00 to 7.00

Field pIC50 (entry CN(Cc1ccncc1)c1nc(OC[C@@]23CCCN2C[C@H](F)C3)nc2c(F)c(-c3ccc(F)c4sc(N)c(C#N)c34)c(C(F)(F)F)cc12 (atropisomer, axis not shown) [Compound 867] ) reads 5.00 to 6.00

Per the records, this compound ( CCN(c1nc(OC[C@@]23CCCN2C[C@H](F)C3)nc2c(F)c(-c3ccc(F)c4sc(N)c(C#N)c34)c(C(F)(F)F)cc12)[C@H]1CCN(C(=O)O[C@@H]2CCOC2)C1 (atropisomer, axis not shown) [Compound 683] ) has pIC50 equal to ≥ 7.00

The measured pIC50 associated with CCN(c1nc(OC[C@@]23CCCN2C[C@H](F)C3)nc2c(F)c(-c3ccc(F)c4sc(N)c(C#N)c34)c(C(F)(F)F)cc12)[C@H]1C[C@H]2CN(CC(F)(F)F)C(=O)N2C1 (atropisomer, axis not shown) [Compound 951] reads 6.00 to 7.00

Measured pIC50 of CCN(c1nc(OC[C@@]23CCCN2C[C@H](F)C3)nc2c(F)c(-c3ccc(F)c4sc(N)c(C#N)c34)c(C(F)(F)F)cc12)[C@H]1C[C@H]2[C@H](C)N(C)C(=O)N2C1 (atropisomer, axis not shown) [Compound 863] : ≥ 7.00

Briefly, pIC50 measured for CCN(c1nc(OC[C@@]23CCCN2C[C@H](F)C3)nc2c(F)c(-c3ccc(F)c4sc(N)c(C#N)c34)c(C(F)(F)F)cc12)[C@@H]1CC(=O)N(C)C1 [Compound 520] : 6.00 to 7.00

Reported pIC50 for CCN(c1nc(OC[C@@]23CCCN2C[C@H](F)C3)nc2c(F)c(-c3ccc(F)c4sc(N)c(C#N)c34)c(C(F)(F)F)cc12)[C@H]1CCN(C(=O)C2COC2)[C@@H]1C (atropisomer, axis not shown) [Compound 833] was 6.00 to 7.00

Lab book: pIC50 of [2H][C@]1(N(CC)c2nc(OC[C@@]34CCCN3C[C@H](F)C4)nc3c(F)c(-c4ccc(F)c5sc(N)c(C#N)c45)c(C(F)(F)F)cc23)CCN(C(=O)C(C)C)C1 (atropisomer, axis not shown) [Compound 860] noted as 6.00 to 7.00

Data point: C=C(C)C(=O)N1CC[C@H](N(CC)c2nc(OC[C@@]34CCCN3C[C@H](F)C4)nc3c(F)c(-c4ccc(F)c5sc(N)c(C#N)c45)c(C(F)(F)F)cc23)C1 (atropisomer, axis not shown) [Compound 673] ; pIC50 = ≥ 7.00

Sure, the documented pIC50 for CCN(c1nc(OC[C@@]23CCCN2C[C@H](F)C3)nc2c(F)c(-c3ccc(F)c4sc(N)c(C#N)c34)c(C(F)(F)F)cc12)[C@@H]1CN2C(=O)N(C)C[C@]2(C)C1 (atropisomer, axis not shown) [Compound 858] is 6.00 to 7.00

pIC50 recorded for this compound, CN(C)C(=O)[C@@H]1CC[C@@H](N(C)c2nc(OC[C@@]34CCCN3C[C@H](F)C4)nc3c(F)c(-c4ccc(F)c5sc(N)c(C#N)c45)c(C(F)(F)F)cc23)C1 (atropisomer, axis not shown) [Compound 512] , is 6.00 to 7.00

pIC50 measured on CCN(c1nc(OC[C@@]23CCCN2C[C@H](F)C3)nc2c(F)c(-c3ccc(F)c4sc(N)c(C#N)c34)c(C(F)(F)F)cc12)[C@H]1CCN(C(=O)O[C@@H]2CCCOC2)C1 (atropisomer, axis not shown) [Compound 796] = 6.00 to 7.00

Lab note: measured pIC50 of CCN(c1nc(OC[C@@]23CCCN2C[C@H](F)C3)nc2c(F)c(-c3ccc(F)c4sc(N)c(C#N)c34)c(C(F)(F)F)cc12)[C@H]1CC(=O)N(C2CC2)C1 (atropisomer, axis not shown) [Compound 615] was ≥ 7.00

Lab note: measured pIC50 of CCN(c1nc(OC[C@@]23CCCN2C[C@H](F)C3)nc2c(F)c(-c3ccc(F)c4sc(N)c(C#N)c34)c(C(F)(F)F)cc12)[C@H]1C[C@@H]2CCCC(=O)N2C1 (atropisomer, axis not shown) [Compound 663] was 5.00 to 6.00

Consider CN(Cc1cnoc1)c1nc(OC[C@@]23CCCN2C[C@H](F)C3)nc2c(F)c(-c3ccc(F)c4sc(N)c(C#N)c34)c(C(F)(F)F)cc12 (atropisomer, axis not shown) [Compound 935] . Its measured pIC50 is 6.00 to 7.00
